assay: observed amide hydrogen exchange rate constant kobs (stretched exponential fit, FD-normalized) (s^-1); higher = faster H/D exchange (less protection); conditions: pH 3 (pH read); temperature: 20 °C; D2O: 88%
Measured observed amide hydrogen exchange rate constant kobs of individual entries
Number only, please.

Answered examples (5):
AEDNADTLALVFEAPNQEK
0.00102
TLNDELEIIEGMK
0.000994
DQLIYNLLK
0.000541
ILATPPQEDAPSVDIANIR
0.00103
ELSDFISYLQR
0.000898

Any idea what its observed amide hydrogen exchange rate constant kobs is? The substance is "VTLTSEEEAR"
0.00196

Next up: "MFVLDEADEMLSR"
0.00164

Next entry: "FHGTVK"
0.00166

Next entry: "VVVSGLPPSGSWQDLK"
0.000996

Request: "VLSSIEQK"
0.00109

---

test: observed amide hydrogen exchange rate constant kobs (stretched exponential fit, FD-normalized) (s^-1); higher = faster H/D exchange (less protection); conditions: pH 3 (pH read); temperature: 20 °C; D2O: 88%
Could you label it fulfilled if measured observed amide hydrogen exchange rate constant kobs is 0.0008 or higher, and not fulfilled otherwise?

Some solved entries appear below for comparison.
GAEAANVTGPGGVPVQGSK
fulfilled
SSFYVNGLTLGGQK
fulfilled
LMDVGLIAIR
not fulfilled
ILGLLDAYLK
fulfilled
PYVEEGLHPQIIIR
fulfilled
EGIPALDNFLDKL
fulfilled
GIAYIEFK
fulfilled
SLADELALVDVLEDK
fulfilled

Form field: observed amide hydrogen exchange rate constant kobs at least 0.0008? Entry: "TFVNITPAEVGVLVGK"
not fulfilled

Entry "LVKQELK" please
not fulfilled

---

assay: observed amide hydrogen exchange rate constant kobs (stretched exponential fit, FD-normalized) (s^-1); higher = faster H/D exchange (less protection); conditions: pH 3 (pH read); temperature: 20 °C; D2O: 88%
assay readout: observed amide hydrogen exchange rate constant kobs
Give a plain numeric answer without units written out.

Before answering, review these 8 worked examples.
SQLDIIIHSLK
0.000886
GEATVSFDDPPSAK
0.00157
DVIEEYFK
0.00131
VAASNIVQMK
0.000933
IEDVTPIPSDSTR
0.00154
LIAPVAEEEATVPNNK
0.00102
GTLDPVEK
0.00116
LWDLTTGTTTR
0.00172

Next substance, observed amide hydrogen exchange rate constant kobs to be filled in.
Entry "VSHLLGINVTDFTR" has what observed amide hydrogen exchange rate constant kobs?
0.00119

---

assay: observed amide hydrogen exchange rate constant kobs (stretched exponential fit, FD-normalized) (s^-1); higher = faster H/D exchange (less protection); conditions: pH 3 (pH read); temperature: 20 °C; D2O: 88%
assay readout: observed amide hydrogen exchange rate constant kobs
Number, no unit, nothing else.

Solved entries:
GNPTVEVDLFTSK
0.000833
NQGGYGGSSSSSSYGSGR
0.00275

Reported observed amide hydrogen exchange rate constant kobs, sequence "GTGIVSAPVPK" : ____
0.00104

// same read-out, input: "VSFELFADK"
0.00165

---

# reported observed amide hydrogen exchange rate constant kobs; entries follow
assay: observed amide hydrogen exchange rate constant kobs (stretched exponential fit, FD-normalized) (s^-1); higher = faster H/D exchange (less protection); settings: pH 3 (pH read); temperature: 20 °C; D2O: 88%
Write the value as a bare number.

Could you share which observed amide hydrogen exchange rate constant kobs value was measured for "IQLINNMLDK" ?
0.00081

Item: "EWFLQAAK"
0.00111

Next entry: "IGFPWSEIR"
0.000936

Entry "HFVALSTNTTK" please
0.00117

Repeat with "IINEPTAAAIAYGLDK"
0.000776

And what about the substance "EITALAPSTMK" ?
0.000944
